Where these numbers come from: the supplement of paper PMC4466140

# System Tested: CaFus1
# Assay Remarks: SPOT peptide array binding signal intensity (averaged, normalized) (arbitrary units (background-subtracted, floor 0; scale differs between SH3 domains)); higher = stronger binding of the SH3 domain to the peptide
Endpoint: SPOT peptide array binding signal intensity

# Binder, Qualifier Symbol, Experimental Result
data = [
    ("RRASLFPRDPKRLRP", "=", 724),
    ("YVRRRPRVRLEPLLS", "=", 589),
    ("DKKTKPTPPPKPSHL", "≤", 0),
    ("GTIARPLFLVVLFFI", "=", 3640),
    ("FSRRQSMDIPSKNRN", "=", 602),
    ("TKPTPPPKPSHLKPK", "≤", 0),
    ("NQARKPFLLPATELS", "=", 228),
    ("NSMRPPLLIPAATTK", "=", 1550),
    ("IPSRPAPKPPSSASA", "=", 30),
    ("NNQRRKPLLLNIGDH", "=", 1030),
]
